assay: qHTS drug screen for cell cycle checkpoint inhibitors in PARPi-resistant BRCA-mutant ovarian cancer cell lines. (AID 1963452); conditions: PEO1/OlaR viability, CellTiter-Glo luminescence, 96 h; measured here: PEO4 Z-AUC; stronger effect = lower value
Each entry below lists one item and its recorded Z-AUC value.
Answer with a bare number; do not write a unit.

In the examples that follow, each entry is paired with its recorded Z-AUC.
- molecule: "CC[C@H]1OC(=O)[C@H](C)C(=O)[C@H](C)[C@@H](O[C@H]2O[C@H](C)C[C@H](N(C)C)[C@H]2O)[C@](C)(OC)C[C@@H](C)C(=O)[C@H](C)[C@H]2N(CCCCn3cnc(-c4cccnc4)c3)C(=O)O[C@]12C"
  quantity kind: "Z-AUC"
  recorded value: -0.0116
- molecule: "CC1(C)S[C@H]2[C@H](NC(=O)[C@@H](N)c3ccc(O)cc3)C(=O)N2[C@H]1C(=O)O"
  quantity kind: "Z-AUC"
  recorded value: 0.161

Request: # input molecule: O=c1ncccn1[C@@H]1O[C@H](CO)[C@@H](O)[C@H]1O ; wanted: its Z-AUC
Result: -1.39

Request: Quick check: Z-AUC of O=C(Nc1cccc(C(F)(F)F)c1)c1cccc2cc(Oc3cc(CO)ncn3)ccc12 ?
Result: -0.749
